Reference source: patent US20250353873A1

system: human APOE RNA; assay: Dose-dependent reduction of human APOE RNA in HepG2 cells, electroporation, 20,000 cells per well, average of GAPDH- and PPIA-normalized results (Example 4, Table 12); assay type: cell-based; details: 205 nM, HepG2, 20,000 cells per well
Strand notation (5' to 3'): a small letter for the sugar, then the base; units joined by * are phosphorothioate-linked, units joined directly phosphodiester-linked; [ ] holds rarer units or linkages, { } end groups; capitals alone tell only the bases. [ms] = mesyl phosphoramidate linkage; e = 2'-O-(2-methoxyethyl) (MOE); k = constrained ethyl (cEt); [5mC] = 5-methylcytosine; d = 2'-deoxy (DNA)
Label key: T means APOE RNA (% UTC) under 60 % UTC; F means APOE RNA (% UTC) of 60 % UTC or more.

Take a look at these entries with their results.
Consider 1778131: modified oligonucleotide complementary to human APOE RNA (eA*e[5mC]eTeTeGkG*dT*dG[ms]dA[ms]dA*dT*d[5mC]*dT*dT*dT*dA[ms]kTkT*eA*eA; antisense) [compound 1778131] . Does its APOE RNA (% UTC) lie strictly below 60 % UTC?
T

Consider 1757575 (eA*e[5mC]eTeT*kG*kG*dT*dG[ms]dA[ms]dA[ms]dT*d[5mC]*dT*dT*dT*dA[ms]kT*eT*eA*eA; antisense) [Compound 1757575] . Does its APOE RNA (% UTC) lie strictly below 60 % UTC?
F

More entries:
Consider 1785617: modified oligonucleotide complementary to human APOE RNA (k[5mC]*dT[ms]dT[ms]kG*dG[ms]kT*dG[ms]dA[ms]dA[ms]dT[ms]d[5mC]*dT*dT*dT*dA*dT*kT*kA*dA[ms]kA; antisense) [compound 1785617] . Does its APOE RNA (% UTC) lie strictly below 60 % UTC?
T

Consider 1778130: modified oligonucleotide complementary to human APOE RNA (eA*e[5mC]eTeTeG*kG*dT*dG[ms]dA[ms]dA*dT*d[5mC]*dT*dT*dT*dA[ms]kTkT*eA*eA; antisense) [compound 1778130] . Does its APOE RNA (% UTC) lie strictly below 60 % UTC?
T

Consider 1785598: modified oligonucleotide complementary to human APOE RNA (k[5mC]*kT*kT*dG[ms]dG[ms]dT[ms]dG[ms]dA[ms]dA[ms]dT*d[5mC]*dT*dT*dT*dA*dT[ms]kT*kA*dA[ms]kA; antisense) [compound 1785598] . Does its APOE RNA (% UTC) lie strictly below 60 % UTC?
T

Consider 1785599: modified oligonucleotide complementary to human APOE RNA (k[5mC]*kT*kT*dG[ms]dG[ms]dT[ms]dG[ms]dA[ms]dA[ms]dT[ms]d[5mC]*dT*dT*dT*dA*dT*kT*kA*dA[ms]kA; antisense) [compound 1785599] . Does its APOE RNA (% UTC) lie strictly below 60 % UTC?
F

Consider ^mCksTksTksGdzGdzTdzGdzAdzAdzTds^mCdsTdsTdsTdsAdsTdsTksAksAdzAk (antisense k[5mC]*kT*kT*dG[ms]dG[ms]dT[ms]dG[ms]dA[ms]dA[ms]dT*d[5mC]*dT*dT*dT*dA*dT*kT*kA*dA[ms]kA) [Compound No. 1785602] . Does its APOE RNA (% UTC) lie strictly below 60 % UTC?
T

Consider 1778111: modified oligonucleotide complementary to human APOE RNA (eA*e[5mC]eTeTeG*kG*dT*dG[ms]dA[ms]dA*dT*d[5mC]*dT*dT*dT*dA[ms]eTeT*eA*eA; antisense) [compound 1778111] . Does its APOE RNA (% UTC) lie strictly below 60 % UTC?
F

###

tested on: human APOE RNA; assay: Activity in APOE C57BL/6NTac-Apoeem7250 knock-in mice, single ICV bolus, 4 weeks (Example 10); assay type: in vivo; settings: cortex; single ICV bolus 300 μg; 4 weeks post treatment; normalized to mouse Ppia
Strand notation (5' to 3'): a small letter for the sugar, then the base; units joined by * are phosphorothioate-linked, units joined directly phosphodiester-linked; [ ] holds rarer units or linkages, { } end groups; capitals alone tell only the bases. [ms] = mesyl phosphoramidate linkage; e = 2'-O-(2-methoxyethyl) (MOE); k = constrained ethyl (cEt); [5mC] = 5-methylcytosine; d = 2'-deoxy (DNA)
observable: APOE RNA (% control) Cortex
Answers are plain numbers, in % control.

These solved cases illustrate the format of a correct answer.
Provide APOE RNA (% control) Cortex value for the following substance: 1746800 (k[5mC]*dT[ms]kT*dG[ms]dG[ms]kT*dG[ms]dA[ms]dA[ms]dT*d[5mC]*dT*dT*dT*dA[ms]dT*kT*dA[ms]kA*kA; antisense) [Compound 1746800]
41

Provide APOE RNA (% control) Cortex value for the following substance: 1746786 (k[5mC]*kT*dT[ms]dG[ms]kG*dT[ms]dG[ms]dA[ms]dA[ms]dT*d[5mC]*dT*dT*dT*dA[ms]dT*kT*kA*dA[ms]kA; antisense) [Compound 1746786]
79

Provide APOE RNA (% control) Cortex value for the following substance: 1778128: modified oligonucleotide complementary to human APOE RNA (eA*e[5mC]eTeTkGkG*dT*dG[ms]dA[ms]dA*dT*d[5mC]*dT*dT*dT*dA[ms]kTeT*eA*eA; antisense) [compound 1778128]
31

Provide APOE RNA (% control) Cortex value for the following substance: 1778130: modified oligonucleotide complementary to human APOE RNA (eA*e[5mC]eTeTeG*kG*dT*dG[ms]dA[ms]dA*dT*d[5mC]*dT*dT*dT*dA[ms]kTkT*eA*eA; antisense) [compound 1778130]
31

Provide APOE RNA (% control) Cortex value for the following substance: 1746803 (k[5mC]*dT[ms]dT[ms]kG*dG[ms]kT*dG[ms]dA[ms]dA[ms]dT*d[5mC]*dT*dT*dT*dA[ms]dT*kT*dA[ms]kA*kA; antisense) [Compound 1746803]
51

Provide APOE RNA (% control) Cortex value for the following substance: 1778129: modified oligonucleotide complementary to human APOE RNA (eA*e[5mC]eTeTeG*kG*dT*dG[ms]dA[ms]dA*dT*d[5mC]*dT*dT*dT*dA[ms]kT*kT*eA*eA; antisense) [compound 1778129]
25

Provide APOE RNA (% control) Cortex value for the following substance: 1785599: modified oligonucleotide complementary to human APOE RNA (k[5mC]*kT*kT*dG[ms]dG[ms]dT[ms]dG[ms]dA[ms]dA[ms]dT[ms]d[5mC]*dT*dT*dT*dA*dT*kT*kA*dA[ms]kA; antisense) [compound 1785599]
32

Provide APOE RNA (% control) Cortex value for the following substance: 1746795 (k[5mC]*kT*dT[ms]kG*dG[ms]dT[ms]dG[ms]dA[ms]dA[ms]dT*d[5mC]*dT*dT*dT*dA[ms]dT*kT*dA[ms]kA*kA; antisense) [Compound 1746795]
75

Provide APOE RNA (% control) Cortex value for the following substance: 1785619 (k[5mC]*dT[ms]dT[ms]kG*dG[ms]kT*dG*dA[ms]dA[ms]dT*d[5mC]*dT*dT*dT*dA[ms]dT*kT*kA*dA[ms]kA) [Compound 1785619]
41

Provide APOE RNA (% control) Cortex value for the following substance: 1778123: modified oligonucleotide complementary to human APOE RNA (eA*e[5mC]eTeTeG*eG*dT*dG[ms]dA[ms]dA*dT*d[5mC]*dT*dT*dT*dA[ms]kTkT*eA*eA; antisense) [compound 1778123]
37

Your task in this section: give APOE RNA (% control) Cortex for each listed record.
1. Aes^mCeoTeoTesGesGksTdsGdzAdzAdzTds^mCdsTdsTdsTdsAdzTksTksAesAe (eA*e[5mC]eTeT*eG*kG*dT*dG[ms]dA[ms]dA[ms]dT*d[5mC]*dT*dT*dT*dA[ms]kT*kT*eA*eA) [Compound No. 1757576]
2. 1746812 (k[5mC]*dT[ms]dT[ms]dG[ms]kG*kT*dG[ms]dA[ms]dA[ms]dT*d[5mC]*dT*dT*dT*dA[ms]dT*dT[ms]kA*kA*kA; antisense) [Compound 1746812]
3. 1746802 (k[5mC]*dT[ms]dT[ms]dG[ms]kG*kT*dG[ms]dA[ms]dA[ms]dT*d[5mC]*dT*dT*dT*dA[ms]dT*kT*dA[ms]kA*kA; antisense) [Compound 1746802]
4. 1778115: modified oligonucleotide complementary to human APOE RNA (eA*e[5mC]eTeTkGkG*dT*dG[ms]dA[ms]dA*dT*d[5mC]*dT*dT*dT*dA[ms]eTeT*eA*eA; antisense) [compound 1778115]
5. 1785591 (k[5mC]*kT*kT*dG[ms]dG[ms]dT[ms]dG*dA*dA*dT*d[5mC]*dT[ms]dT[ms]dT*dA*dT*kT*kA*dA[ms]kA; antisense) [Compound 1785591]

1: 29; 2: 68; 3: 72; 4: 37; 5: 37

Your task in this section: give APOE RNA (% control) Cortex for each listed record.
1. 1778112 (eA*e[5mC]eTeTeGkG*dT*dG[ms]dA[ms]dA*dT*d[5mC]*dT*dT*dT*dA[ms]eTeT*eA*eA; antisense) [Compound 1778112]
2. 1785601: modified oligonucleotide complementary to human APOE RNA (k[5mC]*kT*kT*dG[ms]dG[ms]dT[ms]dG*dA[ms]dA[ms]dT*d[5mC]*dT*dT*dT*dA[ms]dT*kT*kA*dA[ms]kA; antisense) [compound 1785601]
3. 1785604: modified oligonucleotide complementary to human APOE RNA (k[5mC]*dT[ms]dT[ms]kG*dG[ms]kT*dG[ms]dA[ms]dA*dT*d[5mC]*dT*dT*dT*dA*dT*kT*kA*dA[ms]kA; antisense) [compound 1785604]
4. ^mCksTksTksGdzGdzTdzGdzAdzAdzTds^mCdsTdsTdsTdsAdsTdsTksAksAdzAk (antisense k[5mC]*kT*kT*dG[ms]dG[ms]dT[ms]dG[ms]dA[ms]dA[ms]dT*d[5mC]*dT*dT*dT*dA*dT*kT*kA*dA[ms]kA) [Compound No. 1785602]
5. 1785600 (k[5mC]*kT*kT*dG[ms]dG[ms]dT[ms]dG*dA*dA*dT*d[5mC]*dT[ms]dT[ms]dT[ms]dA*dT*kT*kA*dA[ms]kA; antisense) [Compound 1785600]

[46, 33, 39, 34, 46]
